experiment: in vitro; details: rat, gh3-tre-luc cells, AC50 (uM) modified / 1000, Tox21_110001=Tox21_301860; viability, 1 nM T3 present, 24 h
parameter.measured: CC50 at 24 h

So for CC(=O)CC(c1ccc(Cl)cc1)c1c(O)c2ccccc2oc1=O (stereo not shown) , the logged CC50 at 24 h turned out to be > 100 µM

* * *

molecular target: thyroid hormone receptor (endogenous TRα and TRβ); experiment: GH3-TRE-Ag-Followup confirmation (TOX21_TR_LUC_GH3_Agonist_Followup, aeid 2226); assay type: cell-based, rat; conditions: read-out: GH3-TRE-Ag-Followup AC50
parameter.measured: AC50 (µM)
Please state the figure in µM; there is no need to write the unit.

So for Cc1ccc(O)cc1 [Cresol] , the logged AC50 turned out to be 23.7

So for CC(C)(c1ccccc1)c1ccc(O)c(C(C)(C)c2ccccc2)c1 [2,4-Bis(1-methyl-1-phenylethyl)phenol] , the logged AC50 turned out to be 5.35

So for N[C@@H](Cc1ccc(Oc2cc(I)c(O)c(I)c2)c(I)c1)C(=O)O [3,3',5'-Triiodo-L-thyronine] , the logged AC50 turned out to be 0.537

So for Cl.NC(CO)(CO)CO [Tromethamine hydrochloride] , the logged AC50 turned out to be 10.3

* * *

target: human TRβ ligand-binding domain (Homo sapiens, UniProt P10828); assay: TRb-coa LanthaScreen TR-FRET coactivator (SRC-2 peptide) recruitment, agonist (TOX21_TRB_COA_Agonist_Followup_ratio, aeid 2244); format: biochemical; design: host or cells: GeneBLAzer UAS-bla HEK 293T; conditions: hit call from tcpl; agonist
Sequence (P10828 217-461 limits assumed): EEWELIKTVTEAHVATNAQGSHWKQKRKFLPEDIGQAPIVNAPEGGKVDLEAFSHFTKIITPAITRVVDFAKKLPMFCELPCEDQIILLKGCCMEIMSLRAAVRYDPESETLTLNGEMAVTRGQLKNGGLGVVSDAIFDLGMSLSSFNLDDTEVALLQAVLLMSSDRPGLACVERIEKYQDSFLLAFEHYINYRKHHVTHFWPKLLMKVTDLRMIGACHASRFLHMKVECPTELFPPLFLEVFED
parameter.measured: TRb-coa hitc

So for C=C(c1ccc(C(=O)O)cc1)c1cc2c(cc1C)C(C)(C)CCC2(C)C [Bexarotene, reference compound] , the logged TRb-coa hitc turned out to be 0

So for `CC(C)(c1ccccc1)c1ccc(O)c(C(C)(C)c2ccccc2)c1` , the logged TRb-coa hitc turned out to be 0

So for CC(C)(C)CC(C)(C)c1ccc(O)c(Cc2ccc(Cl)cc2Cl)c1 [Clofoctol, reference compound] , the logged TRb-coa hitc turned out to be 1

So for `c1csc(-c2ccc(-c3cccs3)s2)c1` , the logged TRb-coa hitc turned out to be 0

* * *

test: in vitro; settings: rat, gh3-tre-luc cells, AC50 (uM) modified / 1000, Tox21_110001=Tox21_200050; viability, 1 nM T3 present, 24 h
parameter.measured: CC50 at 24 h

So for NC(=O)C(Cl)Cl [2,2-Dichloroacetamide] , the logged CC50 at 24 h turned out to be > 90 µM

* * *

experiment: in vitro; settings: rat, gh3-tre-luc cells, AC50 (uM) modified / 1000
parameter.measured: CC50 at 24 h

So for `CN(C)CCO` , the logged CC50 at 24 h turned out to be > 90 µM

So for `Cc1nc2cc(Cl)ccc2[nH]1` , the logged CC50 at 24 h turned out to be > 90 µM

So for CCCCC(CC)CN1C(=O)[C@@H]2[C@H](C1=O)[C@@H]1C=C[C@H]2C1 (stereo partly drawn) [Octylbicycloheptenedicarboximide] , the logged CC50 at 24 h turned out to be 53.7 µM

So for O=C1CCCN1CCO [1-(2-Hydroxyethyl)pyrrolidin-2-one] , the logged CC50 at 24 h turned out to be > 90 µM

So for `O=C(O)C(F)(F)C(F)(F)C(F)(F)C(F)(F)C(F)(F)C(F)(F)C(F)(F)C(F)(F)F` , the logged CC50 at 24 h turned out to be > 90 µM

So for `O=c1cc(-c2ccccc2)oc2ccc3ccccc3c12` , the logged CC50 at 24 h turned out to be > 90 µM

So for O=C(Cl)c1ccc(F)c(Cl)c1 [3-Chloro-4-fluorobenzoyl chloride] , the logged CC50 at 24 h turned out to be > 90 µM

So for CCCCOC(=O)CCCCC(=O)OCCCC [Dibutyl adipate] , the logged CC50 at 24 h turned out to be > 90 µM

So for CCCCCC(N)=O [Hexanamide] , the logged CC50 at 24 h turned out to be > 90 µM

* * *

test system: GH3-TRE-Luc cell line; conditions: read-out: AC50 (uM) modified / 1000; Tox21_110001=Tox21_300282; viability, 1 nM T3 present, 24 h
parameter.measured: CC50 (µM)
Please state the figure in µM; there is no need to write the unit.

So for O=C1OC(c2ccc(O)cc2)(c2ccc(O)cc2)c2ccccc21 [Phenolphthalein] , the logged CC50 turned out to be 49.8

* * *

experiment: in vitro; conditions: rat, gh3-tre-luc cells, AC50 (uM) modified / 1000
Where a name gives a salt, the structure may show the parent alone. Positions of bridges follow the written chain, without caps; N, C: chain ends. Non-standard residues stand in square brackets, D forms with d. Residues, ends and D or L forms follow the SMILES beside them. Orn = NCCC[C@H](N)C(=O)O; Mpa = O=C(O)CCS
parameter.measured: CC50 at 24 h

So for CCOc1ccc(C[C@H]2NC(=O)CCSSC[C@@H](C(=O)N3CCC[C@H]3C(=O)N[C@@H](CCCN)C(=O)NCC(N)=O)NC(=O)[C@H](CC(N)=O)NC(=O)[C@H]([C@@H](C)O)NC(=O)[C@H]([C@@H](C)CC)NC2=O)cc1 [Atosiban] ([Mpa][dY](Et)ITNCP[Orn]G-NH2; disulfide 1-6) , the logged CC50 at 24 h turned out to be > 50 µM

So for CN(C)C/C=C(/c1ccc(Br)cc1)c1cccnc1 [Zimeldine dihydrochloride hydrate] , the logged CC50 at 24 h turned out to be 35.2 µM

So for `O=C(O)C(c1ccc(Cl)cc1)c1ccc(Cl)cc1` , the logged CC50 at 24 h turned out to be > 90 µM

So for `O=C(O)CCCCCCCCCCCBr` , the logged CC50 at 24 h turned out to be > 90 µM

So for `C[C@@H]1O[C@@H]1P(=O)(O)O` , the logged CC50 at 24 h turned out to be > 50 µM

So for CC(C)(C)C(O)C(Oc1ccc(Cl)cc1)n1cncn1 (stereo not drawn) , the logged CC50 at 24 h turned out to be > 90 µM

So for `CCOc1nc(F)cc2nc(S(=O)(=O)Nc3c(Cl)cccc3Cl)nn12` , the logged CC50 at 24 h turned out to be > 90 µM

So for C=CCOC(=O)c1ccc(C(=O)OCC=C)c(C(=O)OCC=C)c1 [Triallyl trimellitate] , the logged CC50 at 24 h turned out to be > 90 µM

So for C[N+]1(C)CCCC(OC(=O)C(O)(c2ccccc2)c2ccccc2)C1 (stereo not drawn) [Mepenzolate bromide] , the logged CC50 at 24 h turned out to be > 20 µM

So for `Cc1ccccc1C(=O)Nc1cccc(OC(C)C)c1` , the logged CC50 at 24 h turned out to be > 90 µM

So for `CCc1cccc(C)c1N(C(=O)CCl)[C@@H](C)COC` , the logged CC50 at 24 h turned out to be > 90 µM

So for CC/C=C/CCO [(E)-3-Hexen-1-ol] , the logged CC50 at 24 h turned out to be > 90 µM

So for COc1c(N2C[C@@H]3CCCN[C@@H]3C2)c(F)cc2c(=O)c(C(=O)O)cn(C3CC3)c12 [Moxifloxacin hydrochloride] , the logged CC50 at 24 h turned out to be > 50 µM

So for c1cc[n+]2c(c1)-c1cccc[n+]1CC2 [Diquat dibromide monohydrate] , the logged CC50 at 24 h turned out to be > 50 µM

So for CC1=C(/C=C/C(C)=C/C=C/C(C)=C/C(=O)Nc2ccc(O)cc2)C(C)(C)CCC1 [4-Hydroxyphenyl retinamide] , the logged CC50 at 24 h turned out to be 10 µM

So for `Cc1cccc(C)c1OCC(=O)N[C@@H](Cc1ccccc1)[C@@H](O)C[C@H](Cc1ccccc1)NC(=O)[C@H](C(C)C)N1CCCNC1=O` , the logged CC50 at 24 h turned out to be 24.6 µM

So for `CC(C)(O)CCC(C)(C)O` , the logged CC50 at 24 h turned out to be > 90 µM

So for `Nc1ccn([C@@H]2CS[C@H](CO)O2)c(=O)n1` , the logged CC50 at 24 h turned out to be > 90 µM

So for `CCCCCCCCCC(C)=O` , the logged CC50 at 24 h turned out to be > 90 µM

So for `CC(=O)CN(CC(C)=O)N=O` , the logged CC50 at 24 h turned out to be > 90 µM

So for CC(C)NCC(O)c1ccc(N)c(C#N)c1 (stereo not drawn) , the logged CC50 at 24 h turned out to be > 50 µM

So for `CC(C)(C)C(=O)OCOC(=O)[C@@H]1N2C(=O)[C@@H](NC(=O)[C@H](N)c3ccccc3)[C@H]2SC1(C)C` , the logged CC50 at 24 h turned out to be > 20 µM

So for COC(=O)CCC(=O)O [Monomethyl succinate] , the logged CC50 at 24 h turned out to be > 90 µM

So for `CC(=O)CC(C)=O` , the logged CC50 at 24 h turned out to be > 100 µM

So for CN1C(=O)N(C)C(O)C1O (stereo not drawn) , the logged CC50 at 24 h turned out to be > 90 µM

So for C[C@@H](C1=C(CCN(C)C)Cc2ccccc21)c1ccccn1 [(S)-(+)-Dimethindene maleate] , the logged CC50 at 24 h turned out to be 42.1 µM

So for `C[Si]1(C)O[Si](C)(C)O[Si](C)(C)O[Si](C)(C)O1` , the logged CC50 at 24 h turned out to be > 90 µM

So for `O=C(/C=C/c1ccc([N+](=O)[O-])cc1)c1ccccc1` , the logged CC50 at 24 h turned out to be > 90 µM

So for C=CC(=O)OCC(COC(=O)C=C)(COC(=O)C=C)COC(=O)C=C [Pentaerythritol tetraacrylate] , the logged CC50 at 24 h turned out to be 3 µM

So for COc1ccccc1OCCNCC(O)COc1cccc2[nH]c3ccccc3c12 (stereo not drawn) [Carvedilol tartrate] , the logged CC50 at 24 h turned out to be 24 µM

So for `CCCCCCCCO` , the logged CC50 at 24 h turned out to be > 90 µM

So for `O=c1[nH]c(=O)n([C@H]2C[C@H](O)[C@@H](CO)O2)cc1/C=C/Br` , the logged CC50 at 24 h turned out to be > 50 µM

So for Clc1ccc(C(c2ccccc2Cl)C(Cl)Cl)cc1 (stereo not drawn) , the logged CC50 at 24 h turned out to be 56.7 µM

So for `Oc1ccc(Cl)cc1Cc1cc(Cl)ccc1O` , the logged CC50 at 24 h turned out to be 16.7 µM

So for `NC(=O)C(=O)N/N=C/c1ccc([N+](=O)[O-])o1` , the logged CC50 at 24 h turned out to be 24.8 µM

So for C=CCN1CCc2nc(N)sc2CC1 [Talipexole] , the logged CC50 at 24 h turned out to be > 50 µM
